# Experimental Protocol: Toxicity liver stage against HepG2, at 10uM
# Type: cell-based
# Parameters: test concentration 10 uM, cell line HepG2-A16-CD81EGFP
# Assay Context: human, HepG2-A16-CD81EGFP cells; read-out: INHIBITION
Property: cytotoxicity at 10 µM; scope: individual compounds
Write down the numeric answer in % and omit the unit.

Worked cases, cytotoxicity at 10 µM given:
>  <Compound>
Cc1nn(C)c(N2CCOCC2)c1CN[C@@H]1c2ccccc2C[C@@H]1O

>  <Measured Parameter>
cytotoxicity at 10 µM

>  <Value Observed>
-12.2

$$$$
>  <Compound>
Cc1cnn(CC(=O)NC2CCCc3cc(OC(F)F)ccc32)c1 (centres undefined)

>  <Measured Parameter>
cytotoxicity at 10 µM

>  <Value Observed>
-0.653

$$$$
>  <Compound>
Cc1ccc2c(c1)CN(C(=O)C1CCCCC1)C(CN(C)C)CO2 (centres undefined)

>  <Measured Parameter>
cytotoxicity at 10 µM

>  <Value Observed>
1.85

$$$$
>  <Compound>
Cc1nn2c(NCC(=O)NC3CC3)cc(-c3ccccc3)nc2c1C

>  <Measured Parameter>
cytotoxicity at 10 µM

>  <Value Observed>
-5.1

$$$$
>  <Compound>
COc1ccc(C(CO)NC(=O)Nc2cccc(C#N)c2)cc1 (centres undefined)

>  <Measured Parameter>
cytotoxicity at 10 µM

>  <Value Observed>
-17.9

$$$$
>  <Compound>
CC(C)NC(=O)N1CC[C@@H](N(C)C)[C@@H]1Cc1ccncc1

>  <Measured Parameter>
cytotoxicity at 10 µM

>  <Value Observed>
5.53

$$$$
>  <Compound>
O=C(c1cccnc1-c1ccoc1)N1C[C@@H]2CC[C@H]1C2

>  <Measured Parameter>
cytotoxicity at 10 µM

>  <Value Observed>
6.3

$$$$
>  <Compound>
O=C(NCC1CC1)C1CN(Cc2cccs2)Cc2ccnn2C1 (centres undefined)

>  <Measured Parameter>
cytotoxicity at 10 µM

>  <Value Observed>
-3.94

$$$$
>  <Compound>
CC(C)N1CCC(C(=O)N(C)C(C)c2ccon2)CC1 (centres undefined)

>  <Measured Parameter>
cytotoxicity at 10 µM

>  <Value Observed>
5.16

$$$$
>  <Compound>
O=C(NCc1cc(O)ncn1)C1COc2ccccc2C1 (centres undefined)

>  <Measured Parameter>
cytotoxicity at 10 µM

>  <Value Observed>
-9.76

$$$$

-- ask What measured cytotoxicity at 10 µM goes with OC1CCCOC12CCN(c1ncccn1)CC2 (centres undefined) ?
-- reply 3.73

-- ask Next: OCCN1CCN(CC(O)c2cc(Cl)ccc2Cl)CC1 (centres undefined)
-- reply -3.03

-- ask Then this compound: COc1ccc(C)cc1C(=O)N1CCCC(n2cncn2)C1 (centres undefined)
-- reply -13.3

-- ask Try this compound next: N#Cc1ccccc1C(=O)NCCC1CN(Cc2ccco2)CCO1 (centres undefined)
-- reply -7.25

-- ask Repeat for the following compound: O=C(CN1CCOC(Cn2cncn2)C1)NCc1cccs1 (centres undefined)
-- reply -10.2

-- ask What about CSc1ccc(C(C(=O)O)N2CCC(CO)CC2)cc1 (centres undefined) ?
-- reply 3.68

-- ask What do you get for CCc1nc(CN2CCCC(NCc3nnc(C4CC4)n3C)C2)no1 (centres undefined) ?
-- reply -2.97

-- ask Another compound to check: O=C(N[C@@H]1CCNC[C@H]1O)c1ccc(F)c(F)c1
-- reply 5.79
